Quick reference: z-score of the listed items.
Assay: inhibitors of hydroxyurea-induced Chk1 phosphorylation, primary screen, imaging, HeLa, phospho-Chk1 nuclear intensity (AID 1187); further: test concentration not given here
Details: hydroxyurea-induced phospho-Chk1 immunofluorescence imaging, higher = more signal
The answer should be a number; do not append a unit.

Worked cases, answers included:
O=C(CS)NCCCCCNC(=O)[C@@H]1C[C@@H]2C(=O)N[C@@H](Cc3ccccc3)C(=O)N2[C@@H]1c1cccc(OCCO)c1 ... 0.581
C=C(COC)/C(=C/C[C@H](OC(C)=O)c1cccc(OCCO)c1)c1cnc2ccccc2c1 ... 0.276

Asked: Suppose we examine the compound O=C1OCCC=C[C@H]2OC34C=CCN(c5ccc(Cl)cc5)C(=O)[C@H]3N(CCCCCCO)C(=O)[C@@H]4C12 (stereo partly specified) ; what z-score value has been reported?
Given back: 0.116

Asked: Lookup CCOC(=O)C=Cc1ccccc1O
Given back: -0.678

Asked: Lookup CC(C)(C)OC(=O)CC[C@]1(C(=O)N2CCCCC2)COC(c2ccc(OCCCO)cc2)=N1
Given back: 0.131

Asked: Lookup CC(C)C[C@@H]1NC(=O)[C@@H]2C[C@H](C(=O)NCCCCCC[N+](C)(C)C)[C@H](c3cccc(OCCO)c3)N2C1=O
Given back: -0.178

Asked: Lookup CCCCCN1CC=CC23O[C@@H]4/C=C\CCC(C)OC(=O)C4[C@H]2C(=O)N(CCCCCCO)[C@@H]3C1=O (stereo partly specified)
Given back: 0.453

Asked: Lookup O=C1c2ccccc2[C@](Cc2ccccc2I)(C(=O)NC2CC2)[C@H](c2ccc(CO)cc2)N1Cc1ccccc1C(F)(F)F
Given back: -0.189

Asked: Lookup C=C(/C(=C/C[C@@H](OC(=O)c1ccncc1)c1cccc(OCCO)c1)c1cnc2ccccc2c1)C(C)C
Given back: 0.258

Asked: Lookup COc1ccc([Si](C)(C)[C@@H]2[C@@H](CCn3cc([C@H](O)c4ccccc4)nn3)O[C@]3(C(=O)N(c4ccccc4)c4ccccc43)[C@H]2C)cc1
Given back: -0.361

Asked: Lookup O=C1[C@@H]2[C@@H](CC(COc3ccccc3)=C3[C@@H](CCc4ccccc4)OB(O)C[C@@H]32)C(=O)N1Cc1ccccc1
Given back: -0.22
